Known growth inhibition of a selection of molecules
test: C. albicans growth inhibition with fluconazole, primary screen, CaCi-2 strain, Alamar Blue fluorescence (AID 1979);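 also: all wells also contain fluconazole at 8 µg/ml as a sub-toxic cotreatment; 0% = median of DMSO wells and 100% = median of geldanamycin control wells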; details: C. albicans CaCi-2 + fluconazole, 48 h, stronger effect = higher value, concentration not given here
About 1,700 (0.57%) of roughly 300,000 compounds were called active. Inconclusive results (about 2%) are left out. The entries come from a sample that favours actives as a whole.
quantity-kind: growth inhibition

>>> measurement("CCN1C(=O)[C@H]2[C@@H](c3ccc(-c4ccc(F)cc4)cc3)N[C@@](Cc3ccccc3)(C(=O)OC)[C@H]2C1=O")
"-6.22% (inactive)"
>>> measurement("O=C(CN(C(=O)c1csnn1)c1cccc(Cl)c1)NC1CCCC1")
"9.33% (inactive)"
>>> measurement("COc1ccc(N(C(=O)c2ccc(C)cc2)S(=O)(=O)c2cccs2)cc1")
"4.35% (inactive)"
>>> measurement("CC(=O)Nc1ccc(C(=O)Nc2cccc(S(=O)(=O)NC3=NCCC3)c2)cc1")
"3.58% (inactive)"
>>> measurement("COc1ccccc1N1CCN(C(=O)c2cc(=O)c3cc(C)cc(C)c3o2)CC1")
"4.61% (inactive)"
>>> measurement("Cc1ccc(-c2nnn(CC(=O)N(CCO)C(C(=O)NC(C)(C)C)c3ccncc3)n2)cc1 (configuration not stated)")
"-7.13% (inactive)"
>>> measurement("N[C@@H](Cc1ccccc1)C(=O)N1CCC(C(=O)NCC(=O)Nc2ccc(F)cc2)CC1")
"-10.4% (inactive)"
>>> measurement("Cc1ccc(S(=O)(=O)NC(C)C(=O)NCc2ccc(Cl)cc2)cc1 (configuration not stated)")
"-3.28% (inactive)"
>>> measurement("COc1ccccc1OCc1ccc(C(=O)NC(C)c2ccccc2)o1 (configuration not stated)")
"-11.7% (inactive)"
>>> measurement("CC1COc2ccccc2N1S(=O)(=O)c1ccccc1 (configuration not stated)")
"99.8% (active)"
>>> measurement("NNC(=O)C1CCCn2c1nc1sc3c(c1c2=O)CCCC3 (configuration not stated)")
"2.28% (inactive)"
>>> measurement("CN(/C(=N/S(=O)(=O)c1cccs1)c1ccccc1)c1ccc(O)cc1")
"117% (active)"
>>> measurement("Cc1ccc(SCc2c(C(=O)N/N=C/c3cccnc3)nnn2-c2nonc2N)cc1")
"19.8% (inactive)"
>>> measurement("C=CCn1c(CC(=O)Nc2cccc(OC)c2)nnc1SCC(=O)NC1CCCCC1")
"4.51% (inactive)"
>>> measurement("COc1cc(OC)cc(-c2nnc(SCC(=O)Nc3ccc(C(=O)O)cc3)s2)c1")
"-1.63% (inactive)"
>>> measurement("COc1ccc(NC(=O)CSc2nc(C)cs2)cc1")
"106% (active)"
>>> measurement("Nc1nonc1-n1nnc(C(=O)N/N=C/c2cc(Br)ccc2O)c1CSC1=NCCS1")
"90.5% (active)"
>>> measurement("Cc1noc(C)c1COc1ccccc1C(=O)N(C)CC(=O)Nc1cccc(F)c1")
"3.18% (inactive)"
>>> measurement("CC(OC(=O)CCC(=O)c1ccccc1)C(=O)Nc1ccc(F)cc1 (configuration not stated)")
"-2.1% (inactive)"
>>> measurement("CCOc1ccc(CCNC(=O)COC(=O)c2c(OC)cccc2OC)cc1OCC")
"8.5% (inactive)"
>>> measurement("CC1CN(S(=O)(=O)c2ccccc2)C(C)CN1S(=O)(=O)c1ccccc1 (configuration not stated)")
"3.32% (inactive)"
>>> measurement("COC(=O)N/N=C/c1c[n+]([O-])c2ccccc2[n+]1[O-]")
"12.4% (inactive)"
>>> measurement("CCOc1ccc(S(=O)(=O)NCCC(=O)NCC(C)(C)N2CCOCC2)cc1")
"-1.97% (inactive)"
>>> measurement("COc1ccc(-n2cnnc2SCC(=O)Nc2cccc(S(N)(=O)=O)c2)cc1")
"-1.9% (inactive)"
>>> measurement("O=C(N/N=C/c1ccc(O)cc1)/C(=C/c1ccc([N+](=O)[O-])cc1)NC(=O)c1ccccc1")
"1.1% (inactive)"
>>> measurement("CC(=O)N1CCN(C(=O)c2cc(-c3ccc(Cl)s3)nc3ccccc23)CC1")
"11.4% (inactive)"
>>> measurement("Cc1csc(SCC(=O)Nc2sccc2C#N)n1")
"4.45% (inactive)"
>>> measurement("Cc1ccn2c(=O)nc(SCC(=O)NCc3ccc4c(c3)OCO4)nc2c1")
"1.59% (inactive)"
>>> measurement("Cc1nc2sc3c(c2c(=O)n1NC(=O)CCl)CCCC3")
"9.31% (inactive)"
>>> measurement("Cc1ccc(NC(=O)c2sc3nc(N)c(C#N)cc3c2N)cc1")
"88.6% (active)"
>>> measurement("CCOc1ccc(NC(=O)c2ccc(NC(=O)CN3C(=O)C(=O)N(CC(C)C)C3=O)cc2)cc1")
"-2.68% (inactive)"
>>> measurement("Cc1ccc(-c2nnn(CC(=O)N(Cc3ccco3)C(C(=O)NC(C)(C)C)c3ccncc3)n2)o1 (configuration not stated)")
"115% (active)"
>>> measurement("C=CCn1c(COc2ccc(F)cc2)nnc1SCC(=O)Nc1cccc(S(N)(=O)=O)c1")
"94.6% (active)"
>>> measurement("Cc1ccc(C)c(N2CCN(C(=O)Cn3ncn4cccc4c3=O)CC2)c1")
"-9.35% (inactive)"
>>> measurement("COc1ccc(CCNc2cc(N3CCN(C(=O)c4ccccc4OC)CC3)ccc2[N+](=O)[O-])cc1OC")
"-7.13% (inactive)"
>>> measurement("O=C(OCCOCn1cc(Br)c(=O)[nH]c1=O)c1ccccc1")
"-9.14% (inactive)"
>>> measurement("CCOc1ccc(NC(=O)NNC(=O)c2ccc(Cl)cc2Cl)cc1")
"0.808% (inactive)"
>>> measurement("O=C(Nc1cccc2c1CCCC2)c1ccc(F)cc1")
"-3.5% (inactive)"
>>> measurement("O=c1[nH]c(/C=C/c2cccc(Br)c2)nc2ccccc12")
"3.62% (inactive)"
>>> measurement("CCc1ccc2nc3sc(C(=O)Nc4nnc(CC)s4)c(N)c3cc2c1")
"44% (inactive)"
>>> measurement("CC(C)Oc1ccc(S(=O)(=O)N2CCOCC2)cc1NC(=O)C1CSC2(C)CCC(=O)N12 (configuration not stated)")
"-0.702% (inactive)"
>>> measurement("CN(C)c1nc(NN)nc(Nc2ccc(F)cc2)n1")
"3.13% (inactive)"

----------
experiment: C. albicans growth inhibition with fluconazole, primary screen, CaCi-2 strain, Alamar Blue fluorescence (AID 1979);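 also: all wells also contain fluconazole at 8 µg/ml as a sub-toxic cotreatment; 0% = median of DMSO wells and 100% = median of geldanamycin control wells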; conditions: C. albicans CaCi-2 + fluconazole, 48 h, stronger effect = higher value, concentration not given here
Out of some 300,000 compounds screened, about 1,700 (0.57%) were called active. Not shown: some 2% with an inconclusive outcome. Shown is part of a subset that was picked to be rich in actives.
quantity-kind: growth inhibition (%)

>>> measurement("CC(=O)Nc1ccc(NC(=O)COc2ncnc3ccccc23)cc1")
-12.4
>>> measurement("CCOC(=O)c1[nH]ncc1CN1CCCC(C(=O)c2ccc(OC)cc2C)C1 (stereo not given)")
-8.68
>>> measurement("CCn1c(=O)c([N+](=O)[O-])c(NCc2ccc3c(c2)OCO3)c2ccccc21")
18.7
>>> measurement("CC(C)C(=O)Nc1cccc(NC(=S)NC(=O)C(c2ccccc2)c2ccccc2)c1")
50.4
>>> measurement("Cc1nc2ccccc2c(=O)n1Cc1ccc([N+](=O)[O-])cc1")
-0.41
>>> measurement("CC(C)C(=O)N1CC(=O)Nc2ccc(F)cc2C1c1ccc(F)cc1 (stereo not given)")
-3.91
>>> measurement("CCCN1CCn2c3c(c4cc(Br)ccc42)CCCC31 (stereo not given)")
-13.4
>>> measurement("CN(C(=O)COC(=O)CNC(=O)C12CC3CC(CC(C3)C1)C2)c1ccccc1")
-17.2
>>> measurement("Cc1ccc(C(=O)NCCNC(=O)c2ccccc2)cc1")
5.77
>>> measurement("Cc1cc(NC(=O)C(C)SCC(=O)Nc2ccccc2N2CCCCC2)no1 (stereo not given)")
1.22
>>> measurement("CC1CCC(NC(=O)CNC(=O)c2ccc3ccccc3c2)CC1 (stereo not given)")
4.42
>>> measurement("O=C(COc1ccc2c3c(c(=O)oc2c1)CCC3)NC1CCCCC1")
13.6
>>> measurement("CC(NS(=O)(=O)c1ccc(Br)cc1)C(=O)NCC1CCCO1 (stereo not given)")
-9.65
>>> measurement("Cc1ccc(Nc2c3c(nc4ccccc24)CCC3)cc1")
70.5
>>> measurement("NC(=O)C1CCN(C(=O)COc2ccc3c4c(c(=O)oc3c2)CCC4)CC1")
-1.66

----------
test: C. albicans growth inhibition with fluconazole, primary screen, CaCi-2 strain, Alamar Blue fluorescence (AID 1979);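 also: all wells also contain fluconazole at 8 µg/ml as a sub-toxic cotreatment; 0% = median of DMSO wells and 100% = median of geldanamycin control wells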; settings: C. albicans CaCi-2 (fluconazole-resistant clinical isolate) + fluconazole, 48 h, stronger effect = higher value, concentration not given here
Hit rate of the full screen: of about 300,000 compounds, about 1,700 (0.57%) were called active. Roughly 2% stayed inconclusive and do not appear here. What follows is part of a selection rich in actives, with near analogues and random picks from the rest.
growth inhibition values for the compounds below.
quantity-kind: growth inhibition (%)

>>> measurement("O=C(NCCC1CCCCN1S(=O)(=O)c1ccccc1)C(=O)NCC1CCCO1 (stereo not drawn)")
-4.24
>>> measurement("O=C(NCC(=O)N(CC1CCCO1)C(C(=O)NC1CCCCC1)c1ccccc1)c1ccco1 (stereo not drawn)")
103
>>> measurement("Cc1ccc(N(C(=O)CNC(=O)c2ccco2)C(C(=O)NC2CCCC2)c2ccncc2)cc1 (stereo not drawn)")
-17
>>> measurement("Cc1cc(C(=O)NNC(=S)Nc2ccccc2C)cs1")
1.21
>>> measurement("Brc1cnc2ccccc2c1N1CCCCC1")
0.784
>>> measurement("Cc1cccc(N(Cc2ccccc2)C(=O)c2cc(S(=O)(=O)N3CCOCC3)ccc2F)c1")
-1.4
>>> measurement("CSc1nsc(SCC(=O)Nc2cc(C(=O)O)ccc2C)n1")
17.7
>>> measurement("Cc1ccc(-n2c(SCC(=O)N3c4ccccc4Sc4ccccc43)nnc2-c2ccncc2)cc1")
-22.2
>>> measurement("COc1cccc(/C=N/Nc2cc(C)nc(-c3ccccc3O)n2)c1O")
112
>>> measurement("Clc1ccc(Nc2ccc3ccccc3n2)cc1")
-23.2
>>> measurement("Cc1ccc(NS(=O)(=O)c2ccc(N/N=C/c3ccccc3OCC(=O)O)c([N+](=O)[O-])c2)c(C)c1")
-7.09
>>> measurement("CC1CC2=C(CC1/C=N/NC(N)=S)C(C)(C)CCC2 (stereo not drawn)")
26.2
>>> measurement("O=C1N[C@@H](Cc2ccccc2)C(=O)N2[C@H]1C[C@]1(Br)c3ccccc3N(S(=O)(=O)c3ccccc3)[C@H]21")
4.33
>>> measurement("COc1ccc(-n2nnnc2-c2nc3ccccc3s2)cc1")
-12.1
>>> measurement("COc1ccc(N(C(=O)CNC(=O)c2ccco2)C(C(=O)NCC2CCCO2)c2ccccc2)cc1Cl (stereo not drawn)")
7.7
>>> measurement("COC(=O)c1cc(-c2cccs2)nc2ccccc12")
-7.15
>>> measurement("Cc1cc(C)nc(N/N=C/c2ccc([N+](=O)[O-])o2)n1")
11.2
>>> measurement("O=[N+]([O-])c1ccc(N/N=C/c2ccccc2)cc1")
-28.5
>>> measurement("COc1ccc(/C=C(/NC(=O)c2ccc(C)cc2)c2nc3ccccc3[nH]2)cc1OC")
23.2
>>> measurement("Cc1nnc(N/N=C/c2cccs2)[nH]c1=O")
-0.996
>>> measurement("CC1(C)CC(N2CCN(C(c3ccccc3)c3ccccc3)CC2)=CC(=[N+]2CCCCC2)C1")
95.7
>>> measurement("C/[N+]([O-])=C\\c1ccc([N+](=O)[O-])o1")
110
>>> measurement("Cc1ccccc1-n1c(SCC(=O)NCc2cccs2)nnc1-c1ccncc1")
8.03
>>> measurement("O=C(N/N=C/c1ccccn1)c1cccnc1")
6.91
>>> measurement("O=C(O)c1ccc(S(=O)(=O)N2CCC(Cc3ccccc3)CC2)cc1")
-2.12
>>> measurement("O=C(NCCN1CCOCC1)c1cc(-c2cccs2)nc2ccccc12")
-3.11
>>> measurement("CCc1nnc(NC(=O)CCC(=O)O)s1")
-5.2
>>> measurement("COc1cccc(C(=O)NNC(=O)c2ccccc2Br)c1")
110
>>> measurement("CC(C)NC(=S)N1CCN(C(c2ccccc2)c2ccccc2)CC1")
11.5
>>> measurement("CCc1ccc(S(=O)(=O)N/N=C\\c2ccc([N+](=O)[O-])o2)cc1")
13.3
>>> measurement("COc1cccc(C(=O)NNC(=O)/C=C/c2ccccc2)c1")
-14.4
>>> measurement("Cc1ccc(C)c(NC(=S)NNC(=O)c2csc(C)c2)c1")
82.7
>>> measurement("CCOc1ccc(CCNC(=O)COC(=O)CCS(=O)(=O)c2ccc(C)cc2)cc1OCC")
-6.92
>>> measurement("COc1ccc(C2=NN(C(C)=O)C(c3ccccc3)C2)cc1 (stereo not drawn)")
-6.81
>>> measurement("NC1=NC(c2ccc([N+](=O)[O-])cc2)N(c2ccc(F)cc2)C(N)=N1 (stereo not drawn)")
-2.27
>>> measurement("O=C(N/N=C/c1ccc(O)c2ccccc12)c1cccnc1")
11.5
>>> measurement("O=C(Nc1nnc(-c2ccccc2)o1)c1cc(-c2cccs2)nc2ccccc12")
89.3
>>> measurement("Cc1ccc(NNC(=O)c2cccs2)cc1Cl")
94.7
